Tested on: ATP;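 note: ATP exposure 15 min at 22 °C before imaging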
assay_info: switch fluorescence ratio, 500 uM ATP over buffer (Cy3 cluster intensity, sum of 5 cycles each) (fold (ratio)); higher = stronger signal-on switching upon ATP binding; sequences stand for … in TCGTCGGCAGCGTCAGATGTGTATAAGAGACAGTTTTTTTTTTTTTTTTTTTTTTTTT…TC
condition_label: aptamer strand: ATP DNA aptamer (quencher-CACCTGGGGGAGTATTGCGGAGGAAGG + anchor), 100 nM annealed; ATP concentration: 500 uM
Quick reference: switch fluorescence ratio of the listed items.
Could you keep your reply to the number by itself?

Past entries and their recorded results:
# primary_sequence, switch fluorescence ratio
measured = [
    ("ACGGTGGGGG", 1.01),
    ("GCTGGGCATT", 0.992),
    ("ACTCGTTTCG", 1),
]

Lookup: Item: TAGTGCTTGG Test system: ATP Read-out: switch fluorescence ratio Value: ?;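 note: ATP exposure 15 min at 22 °C before imaging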
Found: 0.983

Lookup: Cool, now GCTAGCCAAA
Found: 0.998

Lookup: Next sequence: CGTTTTGGTT
Found: 0.976

Lookup: Continue with GGGGGTTAAT
Found: 1.01

Lookup: Now this one: AATTATCTGC
Found: 0.976

Lookup: Record: TGAAGATCGC
Found: 1.02

Lookup: What about TACTAGGTTT ?
Found: 0.977

Lookup: Now try TAGGGGGCGT .
Found: 0.987

Lookup: Another sequence: TTAACCCTTT
Found: 1.02

Lookup: Same thing, different sequence: CAGACTCGGT
Found: 1.02
